# assay-details: Oral bioavailability in C57Bl6 mouse at 10 mg/kg administered as single dose measured up to 24 hrs ESI-LC/MS-MS analysis
# Format: ADME, organism-based
# stated-conditions: in vivo

{"columns": ["chemical-smiles", "unit-abbrev", "bioavailability"],
 "data": [
  ["CC(C)(C)OC(=O)n1c2c(c3ccccc31)C[C@H]1C(=O)N3C[C@@H](CC(=O)O)C[C@H]3[C@@H]2N1C(=O)CC1CCC(F)(F)CC1", "%", 7.2]
]}

###

# target-entity: Cytochrome P450 3A4 (Homo sapiens)
# Sequence (P08684 whole entry): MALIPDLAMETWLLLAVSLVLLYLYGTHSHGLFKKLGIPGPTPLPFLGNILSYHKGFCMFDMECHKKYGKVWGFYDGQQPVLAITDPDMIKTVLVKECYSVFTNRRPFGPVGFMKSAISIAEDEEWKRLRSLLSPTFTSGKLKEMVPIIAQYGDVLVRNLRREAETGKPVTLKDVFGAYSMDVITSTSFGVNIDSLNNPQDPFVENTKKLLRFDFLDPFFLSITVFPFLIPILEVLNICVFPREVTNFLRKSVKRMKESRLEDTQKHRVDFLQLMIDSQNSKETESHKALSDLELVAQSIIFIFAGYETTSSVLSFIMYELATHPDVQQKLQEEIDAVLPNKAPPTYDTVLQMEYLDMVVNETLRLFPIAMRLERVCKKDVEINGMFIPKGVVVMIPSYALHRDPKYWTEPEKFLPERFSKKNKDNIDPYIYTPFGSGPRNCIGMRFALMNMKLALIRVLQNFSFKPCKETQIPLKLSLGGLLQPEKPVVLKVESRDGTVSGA
# assay-details: Inhibition of CYP3A4 (unknown origin) using testosterone as substrate
# Type: ADME
pIC50: −log10 of the molar value.
endpoint-name: pIC50

{"columns": ["chemical-smiles", "target-entity", "readout-value"],
 "data": [
  ["CC(C)(C)OC(=O)n1c2c(c3ccccc31)C[C@H]1C(=O)N3C[C@@H](CC(=O)O)C[C@H]3[C@@H]2N1C(=O)CC1CCC(F)(F)CC1", "Cytochrome P450 3A4 (Homo sapiens)", "< 4.30"]
]}

###

# assay-details: Cmax in C57Bl6 mouse at 10 mg/kg, po administered as single dose measured up to 24 hrs ESI-LC/MS-MS analysis
# Assay type: ADME, organism-based
# Set-up: dose 10 mg/kg, route oral
# stated-conditions: in vivo

{"columns": ["chemical-smiles", "Cmax [ng/mL]"],
 "data": [
  ["CC(C)(C)OC(=O)n1c2c(c3ccccc31)C[C@H]1C(=O)N3C[C@@H](CC(=O)O)C[C@H]3[C@@H]2N1C(=O)CC1CCC(F)(F)CC1", 227]
]}

###

# assay-details: Cmax in Wistar rat at 10 mg/kg, po administered as single dose treated 2 hrs after dosing with 40 mg/kg, po OATP/MRP2 inhibitor rifampicin and measured up to 24 hrs ESI-LC/MS-MS analysis
# Format: ADME, organism-based
# Parameters: dose 10 mg/kg, route oral
# stated-conditions: in vivo

{"columns": ["chemical-smiles", "Cmax [ng/mL]"],
 "data": [
  ["CC(C)(C)OC(=O)n1c2c(c3ccccc31)C[C@H]1C(=O)N3C[C@@H](CC(=O)O)C[C@H]3[C@@H]2N1C(=O)CC1CCC(F)(F)CC1", 1130]
]}

###

# target-entity: Cytochrome P450 3A4 (Homo sapiens)
# assay-details: Inhibition of CYP3A4 (unknown origin) using midazolam substrate
# Assay type: ADME

{"columns": ["chemical-smiles", "IC50"],
 "data": [
  ["CC(C)(C)OC(=O)n1c2c(c3ccccc31)C[C@H]1C(=O)N3C[C@@H](CC(=O)O)C[C@H]3[C@@H]2N1C(=O)CC1CCC(F)(F)CC1", "> 50 µM"]
]}

###

# assay-details: Clearance in C57Bl6 mouse at 3 mg/kg, iv administered as single dose measured up to 24 hrs ESI-LC/MS-MS analysis
# Format: ADME, organism-based
# stated-conditions: in vivo

{"columns": ["chemical-smiles", "clearance"],
 "data": [
  ["CC(C)(C)OC(=O)n1c2c(c3ccccc31)C[C@H]1C(=O)N3C[C@@H](CC(=O)O)C[C@H]3[C@@H]2N1C(=O)CC1CCC(F)(F)CC1", "109 mL/min/kg"]
]}

###

# target-entity: Glucagon-like peptide 1 receptor (Homo sapiens, UniProt P43220)
# Sequence (P43220 whole entry): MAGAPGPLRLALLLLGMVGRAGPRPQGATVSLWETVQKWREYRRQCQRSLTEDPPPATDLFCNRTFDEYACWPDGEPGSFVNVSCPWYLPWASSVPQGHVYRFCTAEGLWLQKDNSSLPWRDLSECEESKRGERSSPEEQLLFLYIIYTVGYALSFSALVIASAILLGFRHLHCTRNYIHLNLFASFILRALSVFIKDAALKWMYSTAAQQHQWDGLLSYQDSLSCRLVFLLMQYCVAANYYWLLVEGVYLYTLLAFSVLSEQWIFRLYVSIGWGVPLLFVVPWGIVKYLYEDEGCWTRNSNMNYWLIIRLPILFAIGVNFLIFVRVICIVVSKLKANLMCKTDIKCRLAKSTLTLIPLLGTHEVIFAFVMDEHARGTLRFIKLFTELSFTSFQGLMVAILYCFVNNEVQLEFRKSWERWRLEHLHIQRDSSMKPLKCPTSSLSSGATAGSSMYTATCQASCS
# assay-details: Positive allosteric modulator activity at human GLP-1R expressed in PSC-HEK293 cells in presence of EC20 level of GLP1(9-36)NH2 incubated for 30 mins by HTRF cAMP assay relative to control
# Format: functional, cell-based

{"columns": ["molecule", "Emax"],
 "data": [
  ["CC(O)CCN1C[C@H]2c3c(c4ccccc4n3C(=O)OC(C)(C)C)C[C@@H](C1=O)N2C(=O)CC1CCC(F)(F)CC1 (some centres undefined)", "100%"],
  ["Cc1cc(-n2nc3c(c2-n2ccn(-c4ccc5c(cnn5C)c4F)c2=O)[C@H](C)N(C(=O)c2cc4cc([C@H]5CCOC(C)(C)C5)ccc4n2[C@@]2(c4noc(=O)[nH]4)C[C@@H]2C)CC3)cc(C)c1F [ORFORGLIPRON]", "91%"],
  ["CC(C)(C)OC(=O)n1c2c(c3ccccc31)C[C@H]1C(=O)N3C[C@@H](CC(=O)O)C[C@H]3[C@@H]2N1C(=O)CC1CCC(F)(F)CC1", "100%"],
  ["CC(C)(C)OC(=O)n1c2c(c3ccccc31)C[C@H]1C(=O)NC[C@@H]2N1C(=O)CC1CCC(F)(F)CC1", "99%"]
]}
